MEASURED ON: Glucocorticoid receptor (Homo sapiens) (UniProt P04150)
Sequence (P04150 whole entry, looked up): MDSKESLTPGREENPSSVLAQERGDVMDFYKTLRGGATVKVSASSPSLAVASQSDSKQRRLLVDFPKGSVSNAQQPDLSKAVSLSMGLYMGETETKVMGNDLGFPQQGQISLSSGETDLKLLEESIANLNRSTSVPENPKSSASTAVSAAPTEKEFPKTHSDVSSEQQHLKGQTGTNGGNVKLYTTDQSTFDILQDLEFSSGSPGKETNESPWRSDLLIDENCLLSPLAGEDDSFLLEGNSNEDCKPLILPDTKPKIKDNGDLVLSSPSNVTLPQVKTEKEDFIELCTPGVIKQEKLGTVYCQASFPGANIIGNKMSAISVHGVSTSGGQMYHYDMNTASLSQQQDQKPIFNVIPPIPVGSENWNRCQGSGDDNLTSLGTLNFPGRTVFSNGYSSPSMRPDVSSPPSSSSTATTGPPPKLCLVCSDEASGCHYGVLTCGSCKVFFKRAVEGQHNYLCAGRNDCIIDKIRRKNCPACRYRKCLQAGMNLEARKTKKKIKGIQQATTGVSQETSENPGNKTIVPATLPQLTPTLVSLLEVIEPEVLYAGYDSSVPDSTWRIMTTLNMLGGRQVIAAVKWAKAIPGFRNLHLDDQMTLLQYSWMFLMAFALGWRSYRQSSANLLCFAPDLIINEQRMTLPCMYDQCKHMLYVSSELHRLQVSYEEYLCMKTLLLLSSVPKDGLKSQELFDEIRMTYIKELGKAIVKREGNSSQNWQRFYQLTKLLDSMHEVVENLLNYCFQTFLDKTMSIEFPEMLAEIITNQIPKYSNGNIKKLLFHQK
ASSAY METHOD TEXT: GR-GFP Redistribution (AID 450); note: potency is the fitted concentration of half-maximal effect
CONDITIONS USED: U2OS GR-GFP nuclear translocation, laser cytometry, 2 h
The source made the active and inactive calls.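 Rule for the calls: active = compounds whose dose series gives a full or clear partial fitted curve of increased nuclear translocation; inconclusive = weak partial curve or effect only at the top dose; inactive = no dose-dependent translocation response.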
READOUT KIND: Potency

>>> reported_measurement("CC(=O)Oc1ccccc1C(=O)Oc1ccccc1C(=O)O")
"> 20.6 µM (inactive)"
>>> reported_measurement("COc1ncc2nc(-c3cn(C)c4ccccc34)c(=O)n(Cc3ccc(F)cc3)c2n1")
"> 9.22 µM (inactive)"
>>> reported_measurement("CCNc1ncc2nc(-c3cccs3)c(=O)n(Cc3cccc(OC)c3)c2n1")
"> 9.22 µM (inactive)"
>>> reported_measurement("COCCn1c(=O)c(-c2ccccc2)nc2cncnc21")
"> 9.22 µM (inactive)"
>>> reported_measurement("COc1ccc2[nH]cc(CCNc3ncncc3-c3ccccc3CN(C)C)c2c1")
"> 46 µM (inactive)"
>>> reported_measurement("CC(=O)NCCNc1nc(-c2ccc(C(=O)N(C)C)cc2)nc2ccccc12")
"> 46 µM (inactive)"
>>> reported_measurement("COc1cccc(Nc2ncc3nc(C)c(=O)n(C[C@H]4CCCO4)c3n2)c1")
"> 9.22 µM (inactive)"
>>> reported_measurement("COCCNc1nc(-c2cccc(NS(C)(=O)=O)c2)nc2ccccc12")
"> 46 µM (inactive)"
>>> reported_measurement("COc1ccccc1-c1ccc2ncnc(N(C)C)c2c1")
"> 46 µM (inactive)"
>>> reported_measurement("Cc1cnc(CNc2nc(-c3ccc(C(=O)N(C)C)cc3)nc3ccccc23)cn1")
"> 46 µM (inactive)"
>>> reported_measurement("COc1ccc(CNc2cc(-c3cccnc3)ncn2)c(OC)c1")
"> 46 µM (inactive)"
>>> reported_measurement("COc1ccc2[nH]cc(CCNc3nc(-c4ccc(N(C)C)cc4)nc4ccccc34)c2c1")
"> 46 µM (inactive)"
>>> reported_measurement("CN(C)C(=O)c1ccc(-c2ccc3ncnc(NCc4cccs4)c3c2)cc1")
"> 46 µM (inactive)"
>>> reported_measurement("COc1ccc(CNc2nc(-c3ccoc3)nc3ccccc23)c(OC)c1")
"> 46 µM (inactive)"
>>> reported_measurement("CN(C)c1nc(-c2cccnc2)nc2ccccc12")
"> 46 µM (inactive)"
>>> reported_measurement("COc1ccc(-c2nc3cnc(Oc4ccccc4)nc3n(Cc3cccs3)c2=O)cc1")
"> 9.22 µM (inactive)"
>>> reported_measurement("COc1ccc(-n2c(=O)c(-c3cn(C)c4ccccc34)nc3cncnc32)cc1")
"> 9.22 µM (inactive)"
>>> reported_measurement("CN(C)c1ccc(-c2cncnc2Nc2ccc(F)cc2)cc1")
"> 46 µM (inactive)"
>>> reported_measurement("c1cncc(CNc2cc(-c3ccoc3)ncn2)c1")
"> 46 µM (inactive)"
>>> reported_measurement("Clc1cccc2c1CN(C1=NCCN1)C2")
"> 46 µM (inactive)"
>>> reported_measurement("N#Cc1cccc(-c2cc(-n3ccnc3)ncn2)c1")
"> 46 µM (inactive)"
>>> reported_measurement("CN(Cc1ccco1)c1nc(-c2cccc(C#N)c2)nc2ccccc12")
"> 46 µM (inactive)"
>>> reported_measurement("COc1ccc(-c2nc3cnc(OCc4ccccc4)nc3n(CCC#N)c2=O)cc1")
"> 9.22 µM (inactive)"
>>> reported_measurement("O=C(O)/C=C\\c1ccc(Cn2ccnc2)cc1")
"> 20.6 µM (inactive)"
>>> reported_measurement("CCNc1ncc2nc(-c3cn(C)c4ccccc34)c(=O)n(C[C@H]3CCCO3)c2n1")
"> 9.22 µM (inactive)"
>>> reported_measurement("c1cncc(CNc2ncncc2-c2ccoc2)c1")
"> 46 µM (inactive)"
>>> reported_measurement("CCNc1ncc2nc(-c3ccc(F)cc3)c(=O)n(Cc3ccc(F)cc3)c2n1")
"> 9.22 µM (inactive)"
>>> reported_measurement("O=c1c(-c2cc(F)cc(F)c2)nc2cncnc2n1Cc1ccc(F)cc1")
"> 9.22 µM (inactive)"
>>> reported_measurement("CN(C)Cc1ccccc1-c1ccc2ncnc(N(C)Cc3ccco3)c2c1")
"> 46 µM (inactive)"
>>> reported_measurement("N#Cc1cccc(-c2ccc3ncnc(NCCN4CCOCC4)c3c2)c1")
"> 46 µM (inactive)"
>>> reported_measurement("COc1ccccc1CNc1ccnc(-c2ccc(C(=O)N(C)C)cc2)n1")
"> 46 µM (inactive)"
>>> reported_measurement("COc1cccc(Cn2c(=O)c(-c3cn(C)c4ccccc34)nc3cncnc32)c1")
"> 9.22 µM (inactive)"
>>> reported_measurement("COCCNc1ccnc(-c2ccccc2C)n1")
"> 46 µM (inactive)"
>>> reported_measurement("COc1ccc(-n2c(=O)c(-c3ccccc3)nc3cnc(N4CCOCC4)nc32)cc1")
"> 9.22 µM (inactive)"
>>> reported_measurement("COc1ccc(Oc2ncc3nc(CCc4ccccc4)c(=O)n(C)c3n2)cc1")
"> 9.22 µM (inactive)"
>>> reported_measurement("Cc1noc(C)c1-c1cncnc1NC1CC1")
"> 46 µM (inactive)"
>>> reported_measurement("CC12CC[C@@H]3c4ccc(OS(=O)(=O)O)cc4CC[C@H]3C1CCC2=O (stereo partly specified)")
"> 20.6 µM (inactive)"
>>> reported_measurement("CN(Cc1ccco1)c1ncncc1-c1cccnc1")
"> 46 µM (inactive)"
>>> reported_measurement("COc1ccc(CNc2ccnc(-c3ccccc3CN(C)C)n2)c(OC)c1")
"> 46 µM (inactive)"
>>> reported_measurement("CN1CCN(c2ncc3ncc(=O)n(Cc4ccc(F)cc4)c3n2)CC1")
"> 9.22 µM (inactive)"
>>> reported_measurement("COc1cccc(Cn2c(=O)c(-c3cccs3)nc3cnc(Nc4cccc(OC)c4)nc32)c1")
"> 9.22 µM (inactive)"
>>> reported_measurement("CCN1CCC[C@@H]1CNC(=O)c1cc(S(N)(=O)=O)ccc1OC")
"> 46 µM (inactive)"
>>> reported_measurement("CN(C)Cc1ccccc1-c1cc(NCc2ccccc2)ncn1")
"> 46 µM (inactive)"
>>> reported_measurement("COc1cccc(Cn2c(=O)c(-c3ccccc3)nc3cncnc32)c1")
"> 9.22 µM (inactive)"
>>> reported_measurement("COc1ccccc1-c1ccc2ncnc(NCCN3CCOCC3)c2c1")
"> 46 µM (inactive)"
>>> reported_measurement("c1cn(-c2ccnc(-c3ccc4c(c3)OCO4)n2)cn1")
"> 46 µM (inactive)"
